- Study system: T1, IL-18 receptor (IL-18R) on HEK-Blue IL18R reporter cells (UniProt Q13478 19-541; O95256 20-599, limits assumed)
- T1 sequence (looked up) 1: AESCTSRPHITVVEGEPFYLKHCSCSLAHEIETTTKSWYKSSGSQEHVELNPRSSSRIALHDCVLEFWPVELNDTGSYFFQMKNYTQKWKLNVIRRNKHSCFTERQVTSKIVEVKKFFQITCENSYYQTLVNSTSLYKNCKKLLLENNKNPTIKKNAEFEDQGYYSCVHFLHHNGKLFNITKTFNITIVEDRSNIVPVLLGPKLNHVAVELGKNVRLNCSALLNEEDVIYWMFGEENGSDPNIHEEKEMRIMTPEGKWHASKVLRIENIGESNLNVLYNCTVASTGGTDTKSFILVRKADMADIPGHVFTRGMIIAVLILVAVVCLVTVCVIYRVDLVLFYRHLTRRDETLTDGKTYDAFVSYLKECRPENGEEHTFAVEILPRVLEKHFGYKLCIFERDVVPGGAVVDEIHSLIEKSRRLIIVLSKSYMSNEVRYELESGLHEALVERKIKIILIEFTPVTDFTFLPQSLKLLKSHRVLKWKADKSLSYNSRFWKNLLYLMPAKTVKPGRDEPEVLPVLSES
- T1 sequence (looked up) 2: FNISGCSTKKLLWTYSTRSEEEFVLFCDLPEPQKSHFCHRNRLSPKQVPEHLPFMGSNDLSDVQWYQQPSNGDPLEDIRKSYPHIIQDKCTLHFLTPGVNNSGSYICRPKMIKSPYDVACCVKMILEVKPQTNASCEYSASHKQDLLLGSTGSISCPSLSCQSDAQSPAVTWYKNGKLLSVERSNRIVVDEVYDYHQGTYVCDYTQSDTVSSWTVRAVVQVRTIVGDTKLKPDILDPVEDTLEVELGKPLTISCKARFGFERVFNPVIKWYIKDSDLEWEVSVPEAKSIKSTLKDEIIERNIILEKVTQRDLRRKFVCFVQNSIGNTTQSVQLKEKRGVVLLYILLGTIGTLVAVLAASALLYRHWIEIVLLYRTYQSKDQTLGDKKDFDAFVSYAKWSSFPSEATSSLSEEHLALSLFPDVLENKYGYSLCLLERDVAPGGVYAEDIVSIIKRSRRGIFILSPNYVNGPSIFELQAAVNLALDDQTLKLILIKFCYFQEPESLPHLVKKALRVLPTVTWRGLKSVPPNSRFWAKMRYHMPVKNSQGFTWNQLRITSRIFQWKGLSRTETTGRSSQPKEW
- Assay explanation: cell-based or functional assay
EC50, HEK-Blue IL18R reporter values, listed per item
The answer is to be given in nM; state only the numeric part.

IL-18 variant SEQ ID NO: 207 (V11I, C38A, M51G, K53A, C76A, C127A) (ligand) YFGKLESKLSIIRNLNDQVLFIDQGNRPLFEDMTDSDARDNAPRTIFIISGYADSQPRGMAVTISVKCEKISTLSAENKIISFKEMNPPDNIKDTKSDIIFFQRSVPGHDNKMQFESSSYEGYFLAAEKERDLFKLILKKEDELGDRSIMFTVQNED    0.8
IL-18 variant SEQ ID NO: 30 (E6K, V11I, C38A, K53A, T63A, C76A, C127A) (ligand) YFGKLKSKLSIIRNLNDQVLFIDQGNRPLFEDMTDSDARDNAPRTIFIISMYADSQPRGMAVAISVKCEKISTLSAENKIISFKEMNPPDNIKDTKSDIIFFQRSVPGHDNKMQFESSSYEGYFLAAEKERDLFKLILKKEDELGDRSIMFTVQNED    0.053

Next binder, EC50, HEK-Blue IL18R reporter to be filled in.
Exercise: Specify reported EC50, HEK-Blue IL18R reporter for the binder shown: IL-18 variant SEQ ID NO: 62 (E6K, C38A, K53A, C127A) (ligand) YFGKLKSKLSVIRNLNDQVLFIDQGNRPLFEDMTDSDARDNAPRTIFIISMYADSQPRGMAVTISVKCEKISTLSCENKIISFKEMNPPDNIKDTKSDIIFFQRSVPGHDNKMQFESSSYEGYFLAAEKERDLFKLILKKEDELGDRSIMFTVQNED
Solution: 0.17
